target-or-test-system: Human HDAC-1 (Homo sapiens)
Sequence (Q13547 whole entry): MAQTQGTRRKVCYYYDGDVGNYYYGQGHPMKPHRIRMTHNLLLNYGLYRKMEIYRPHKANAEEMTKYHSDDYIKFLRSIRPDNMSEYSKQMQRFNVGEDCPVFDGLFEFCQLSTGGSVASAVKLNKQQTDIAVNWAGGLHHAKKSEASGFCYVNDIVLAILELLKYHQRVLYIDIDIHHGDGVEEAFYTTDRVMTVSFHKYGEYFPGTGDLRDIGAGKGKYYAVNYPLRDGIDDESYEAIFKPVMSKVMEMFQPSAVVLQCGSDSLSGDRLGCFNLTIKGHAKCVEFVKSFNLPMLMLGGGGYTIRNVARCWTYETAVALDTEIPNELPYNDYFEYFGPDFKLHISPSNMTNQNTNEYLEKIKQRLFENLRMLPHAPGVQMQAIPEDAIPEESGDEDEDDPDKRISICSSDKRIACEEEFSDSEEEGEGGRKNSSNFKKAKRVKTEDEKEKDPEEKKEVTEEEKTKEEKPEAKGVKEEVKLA
pIC50: −log10 of the molar value.
quantity-measured: pIC50

Solved entries:
Prompt: Identify the measured pIC50 of "Nc1ccccc1NC(=O)c1ccc(N2CC[C@H](Oc3ccc(Oc4ccccc4)cc3)C2)cc1" for Human HDAC-1 (Homo sapiens).
Completion: 5.30 to 6.00

Prompt: Identify the measured pIC50 of "Nc1ccccc1NC(=O)c1ccc(N2CC[C@H](Nc3ccccc3)C2)cc1" for Human HDAC-1 (Homo sapiens).
Completion: 6.00 to 7.00

Prompt: Identify the measured pIC50 of "COC(=O)c1ccc(O[C@H]2CCN(c3ccc(C(=O)Nc4ccccc4N)cc3)C2)cc1" for Human HDAC-1 (Homo sapiens).
Completion: ≥ 7.00

Prompt: Identify the measured pIC50 of "Nc1ccccc1NC(=O)c1ccc(N2CC[C@H](Oc3ccccc3)C2)cc1" for Human HDAC-1 (Homo sapiens).
Completion: 6.00 to 7.00

Prompt: Identify the measured pIC50 of "Nc1ccccc1NC(=O)c1ccc(N2CC[C@@H](Nc3cccnc3)C2)cc1" for Human HDAC-1 (Homo sapiens).
Completion: 6.00 to 7.00

// next entry
Prompt: Identify the measured pIC50 of "Nc1ccccc1NC(=O)c1ccc(N2CC[C@H](Oc3cccnc3)C2)cc1" for Human HDAC-1 (Homo sapiens).
Completion: 6.00 to 7.00

---

Test system: SW48 colon cancer cells
test-summary: Human tumor xenograft in vivo, SW48
reported-conditions: Mus musculus, 30 mg/kg ip, mice, read-out: % Inhibition (relative to vehicle control) SW48
Would you mind labelling by inhibition in vivo at 30 mg/kg? At or over 40% is 1, under is -1.

Please review the following examples before continuing.
Prompt: Record CC(=O)Nc1ccc(NCc2ccc(C(=O)Nc3ccccc3N)cc2)cn1 [212f] ; criterion: inhibition in vivo at 30 mg/kg no lower than 40%. Met?
Completion: -1

Prompt: Record CN(C)C(=O)c1ccc(-c2ccnc(NCc3ccc(C(=O)Nc4ccccc4N)cc3)n2)cn1 [29a] ; criterion: inhibition in vivo at 30 mg/kg no lower than 40%. Met?
Completion: 1

Prompt: Record Nc1ccccc1NC(=O)c1ccc(CNc2nccc(-c3nccs3)n2)cc1 [26c] ; criterion: inhibition in vivo at 30 mg/kg no lower than 40%. Met?
Completion: 1

Prompt: Record Cn1cnc2cc(NCc3ccc(C(=O)Nc4ccccc4N)cc3)ccc21 [compound 252] ; criterion: inhibition in vivo at 30 mg/kg no lower than 40%. Met?
Completion: -1

Prompt: Record Nc1ccccc1NC(=O)c1ccc(CNc2nccc(-c3ccncc3)n2)cc1 [31b] ; criterion: inhibition in vivo at 30 mg/kg no lower than 40%. Met?
Completion: 1

***
Prompt: Record Nc1ccccc1NC(=O)c1ccc(CNc2nccc(-c3ccc(N4CCOCC4)nc3)n2)cc1 [34a] ; criterion: inhibition in vivo at 30 mg/kg no lower than 40%. Met?
Completion: -1

Prompt: Record Nc1ccccc1NC(=O)c1ccc(CSc2nc3cc(F)c(F)cc3[nH]2)cc1 [compound 194] ; criterion: inhibition in vivo at 30 mg/kg no lower than 40%. Met?
Completion: -1

Prompt: Record COc1ccc(NCc2ccc(C(=O)Nc3ccccc3N)cc2)cc1F [212h] ; criterion: inhibition in vivo at 30 mg/kg no lower than 40%. Met?
Completion: 1

Prompt: Record CN(C)CC(=O)Nc1ccc2nc(SCc3ccc(C(=O)Nc4ccccc4N)cc3)sc2c1 [compound 158] ; criterion: inhibition in vivo at 30 mg/kg no lower than 40%. Met?
Completion: 1
